The reported numbers originate from PubChem BioAssay (NCI).

tested on: SK-MEL-28 melanoma; assay: NCI tumour cell line growth inhibition, 48 h
reported.property: TGI

compound	recorded.value
O=c1cc2ccccc2nn1Cc1ccccc1Cl	> 100 µM
O=C(O)CCCCCOc1cccnc1/C=N/NC1=NCCN1	> 100 µM
O=C(c1ccc2ncc(-c3nc(NC4CC4)ncc3F)n2c1)N1CCOCC1	7.6 µM
O=C1NC(N/N=C\C(O)C(O)C(O)CO)=N/C1=C/c1ccc(Cl)cc1 (configuration not stated)	> 100 µM
Cc1ccc(OCC2OC(n3cnc4c(N(C)C)nc(Br)nc43)CC2Oc2ccc(C)cc2)cc1 (configuration not stated)	> 100 µM
COc1ccc(N2C(=Nc3ccccc3)SC(=N/S(=O)(=O)c3ccccc3)/C2=N\S(=O)(=O)c2ccccc2)cc1	33.9 µM
C/C(=N\NS(=O)(=O)c1ccccc1)c1ccccc1	> 100 µM
